target: recombinant soluble homotrimeric HA of A/Hong Kong/156/97 (H5N1) (Influenza A virus A/Hong Kong/156/97 (H5N1)); assay: trimeric HA microarray, transfection supernatant set 5; settings: remark: other sources report otherwise
MEASURED_PROPERTY: Trimeric HA Binding: RLU (RLU)
Unit RLU implied. Number only.

Consider the reported Trimeric HA Binding: RLU for these binders:
- TCN-538 (3206_O17) (antibody, V domains shown) VH: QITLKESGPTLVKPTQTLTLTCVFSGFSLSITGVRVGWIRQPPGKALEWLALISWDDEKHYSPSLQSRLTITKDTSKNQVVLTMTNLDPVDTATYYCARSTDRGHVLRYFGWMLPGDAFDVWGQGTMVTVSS VL: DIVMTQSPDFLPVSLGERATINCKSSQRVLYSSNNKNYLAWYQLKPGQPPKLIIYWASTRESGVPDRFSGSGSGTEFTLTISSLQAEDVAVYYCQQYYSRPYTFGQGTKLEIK: 5170
- TCN-537 (3194_D21) (antibody, V domains shown) VH: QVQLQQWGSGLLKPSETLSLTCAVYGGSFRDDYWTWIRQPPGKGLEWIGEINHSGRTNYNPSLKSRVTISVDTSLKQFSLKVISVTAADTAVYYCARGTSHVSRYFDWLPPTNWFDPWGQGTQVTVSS VL: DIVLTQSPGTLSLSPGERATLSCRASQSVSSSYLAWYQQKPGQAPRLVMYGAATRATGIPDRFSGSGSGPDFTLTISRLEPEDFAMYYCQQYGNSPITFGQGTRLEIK: 10700

Problem: Item TCN-543 (5081_G23) (antibody, V domains shown) VH: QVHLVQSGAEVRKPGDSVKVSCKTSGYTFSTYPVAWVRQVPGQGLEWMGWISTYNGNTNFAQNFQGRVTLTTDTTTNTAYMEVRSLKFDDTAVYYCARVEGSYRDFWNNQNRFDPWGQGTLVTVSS VL: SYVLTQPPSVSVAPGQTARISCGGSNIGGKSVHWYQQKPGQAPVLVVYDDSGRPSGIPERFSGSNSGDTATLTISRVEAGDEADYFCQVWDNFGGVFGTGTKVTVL has what recorded Trimeric HA Binding: RLU?
Solution: 1430
